TESTED_ON: JAK3 (Homo sapiens (Human), UniProt P52333)
Sequence (P52333 795-1124): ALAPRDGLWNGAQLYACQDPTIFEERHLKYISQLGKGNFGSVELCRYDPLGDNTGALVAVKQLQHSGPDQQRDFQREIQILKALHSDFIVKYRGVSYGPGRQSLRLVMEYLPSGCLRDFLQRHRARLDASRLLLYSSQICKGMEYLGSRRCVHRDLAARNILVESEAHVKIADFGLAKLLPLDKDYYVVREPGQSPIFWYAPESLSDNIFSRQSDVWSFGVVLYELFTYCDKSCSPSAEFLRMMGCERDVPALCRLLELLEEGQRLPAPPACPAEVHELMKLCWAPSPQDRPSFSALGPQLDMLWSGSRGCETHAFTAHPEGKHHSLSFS
ASSAY_COMMENT: In vitro JAK kinase assay (TR-FRET), JAK3
CONDITION_INFO: catalytic domain aa 795-1124, GST-fusion; ATP 0.6 μM; peptide 140 nM; 30 minutes at room temperature
pIC50: −log10 of the molar value.
EXPERIMENTAL_ENDPOINT: pIC50

A selection of reference data follows.
O=C(CO)N1CCC[C@@H](Nc2cc(-c3cncc(O)c3)nc(-c3cnn4ccccc34)n2)C1
8.30
O=C(CO)N1CCC[C@@H](Nc2nc(-c3cnn4ccccc34)nc(OCCCO)c2F)C1
8.52
O=C(CO)N1CCC[C@@H](Nc2nc(-c3cnn4ccccc34)nc(-c3cncc(CO)c3)c2F)C1
8.40
N#CCC(=O)N1CCC[C@@H](Nc2nc(-c3cnn4ccccc34)nc(-c3ccc(CO)cc3)c2F)C1
9.00
CC(C)(O)Cn1cc(-c2nc(-c3cnn4ccccc34)nc(N[C@@H]3CCCN(C(=O)CO)C3)c2F)cn1
8.70

P: Cc1cc(-c2cc(N[C@@H]3CCCN(C(=O)CO)C3)nc(-c3cnn4ccccc34)n2)cc(C)n1
Q: COc1nc(-c2cnn3ccccc23)nc(N[C@@H]2CCCN(c3cnc(C#N)cn3)C2)c1F
Data request: Of the two listed items, which has the higher pIC50? First: P Second: Q I would appreciate it if you answered with the label of your choice.
Data returned: P
